# assayed system: human ether-à-go-go-related gene (hERG) potassium channel (human);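 note: peak tail current of the secondary pulse compared with the same well before compound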
# Sequence (Q12809 whole entry, looked up): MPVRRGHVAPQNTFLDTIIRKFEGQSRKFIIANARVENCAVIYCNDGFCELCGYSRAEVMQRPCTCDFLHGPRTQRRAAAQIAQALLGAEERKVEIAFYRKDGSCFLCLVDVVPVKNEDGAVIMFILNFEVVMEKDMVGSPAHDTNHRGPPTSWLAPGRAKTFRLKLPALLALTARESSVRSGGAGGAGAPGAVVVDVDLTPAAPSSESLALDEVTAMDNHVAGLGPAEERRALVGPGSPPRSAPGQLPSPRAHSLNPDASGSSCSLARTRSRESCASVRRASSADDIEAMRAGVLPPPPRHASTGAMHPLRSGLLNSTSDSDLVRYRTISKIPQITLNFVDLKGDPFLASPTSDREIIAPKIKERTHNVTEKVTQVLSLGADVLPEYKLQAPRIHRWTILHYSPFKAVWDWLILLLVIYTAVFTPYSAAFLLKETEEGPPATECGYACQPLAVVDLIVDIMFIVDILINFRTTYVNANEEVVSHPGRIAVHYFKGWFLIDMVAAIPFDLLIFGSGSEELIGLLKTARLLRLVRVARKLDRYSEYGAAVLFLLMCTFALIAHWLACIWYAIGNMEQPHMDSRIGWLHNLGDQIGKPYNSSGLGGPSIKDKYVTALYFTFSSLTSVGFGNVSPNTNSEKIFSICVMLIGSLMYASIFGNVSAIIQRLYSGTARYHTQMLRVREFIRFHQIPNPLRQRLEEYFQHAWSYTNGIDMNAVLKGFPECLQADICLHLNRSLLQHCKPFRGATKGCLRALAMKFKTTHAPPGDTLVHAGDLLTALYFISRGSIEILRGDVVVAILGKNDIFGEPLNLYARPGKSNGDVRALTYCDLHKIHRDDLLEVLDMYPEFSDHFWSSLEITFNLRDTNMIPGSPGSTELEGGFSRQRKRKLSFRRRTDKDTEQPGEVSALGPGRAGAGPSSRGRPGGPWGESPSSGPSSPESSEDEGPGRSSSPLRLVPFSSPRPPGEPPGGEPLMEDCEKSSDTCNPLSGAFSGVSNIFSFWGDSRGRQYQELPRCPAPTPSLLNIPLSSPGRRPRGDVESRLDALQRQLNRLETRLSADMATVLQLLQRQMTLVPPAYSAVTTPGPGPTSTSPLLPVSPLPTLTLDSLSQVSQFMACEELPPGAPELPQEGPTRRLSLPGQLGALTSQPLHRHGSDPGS
# experiment notes: primary screen, population patch clamp on CHO cells stably expressing hERG; higher = less effect of the substance
# Procedure: Briefly, Chinese hamster ovary (CHO) cells stably expressing the hERG channel were dislodged from tissue culture flasks and dispensed into PPC plates. […] During the recording, background leak currents were estimated by a 100 ms step to -80 mV from an initial holding potential of -70 mV and subtracted from the subsequent current measurement. The campaign was conducted in two phases using slight differences in recording protocol. […]
Hit rate of the full screen: of about 310,000 compounds, about 14,000 (4.5%) showed an effect of 50% or more. Effects have a minus sign here. This excerpt belongs to a sample that is enriched for strong results.
Listed here are compounds together with their documented hERG current change (%, negative = inhibition) at 10uM.
quantity measured: hERG current change (%, negative = inhibition) at 10uM (%)

{"compound": "CCc1ccc(CNC(=O)C2CCN(c3nnc(C)c4c(C)n(-c5ccc(C)cc5)nc34)CC2)cc1", "assayed system": "human ether-à-go-go-related gene (hERG) potassium channel (human)", "meas value": -1.17}
{"compound": "CN(C(=O)COC(=O)C12CC3CC(CC(Cl)(C3)C1)C2)C1(C#N)CCCCC1", "assayed system": "human ether-à-go-go-related gene (hERG) potassium channel (human)", "meas value": -53.5}
{"compound": "O=C(CCNS(=O)(=O)c1ccccc1)NNC(=O)COc1ccc(Cl)cc1", "assayed system": "human ether-à-go-go-related gene (hERG) potassium channel (human)", "meas value": 2.29}
{"compound": "O=[N+]([O-])c1ccc(CSc2nnc(Cc3ccccc3)n2-c2ccc(F)cc2)cc1", "assayed system": "human ether-à-go-go-related gene (hERG) potassium channel (human)", "meas value": -48.7}
{"compound": "COc1ccc(-n2c(Cc3ccccc3)nnc2SCc2ccc([N+](=O)[O-])cc2)cc1", "assayed system": "human ether-à-go-go-related gene (hERG) potassium channel (human)", "meas value": -68.4}
{"compound": "COc1ccc(-n2c(Cc3ccccc3)nnc2SCC(=O)N2CCCc3ccccc32)cc1", "assayed system": "human ether-à-go-go-related gene (hERG) potassium channel (human)", "meas value": -53.9}
{"compound": "COc1ccc(-n2c(SCc3ccc([N+](=O)[O-])cc3)nnc2-c2ccccc2)cc1", "assayed system": "human ether-à-go-go-related gene (hERG) potassium channel (human)", "meas value": -24.4}
{"compound": "Cc1ccc(CN2CCN(/N=C/c3cccnc3)CC2)c(C)c1", "assayed system": "human ether-à-go-go-related gene (hERG) potassium channel (human)", "meas value": -47.5}
{"compound": "Cc1cc(-c2ccccc2)c(C#N)c(SCC(N)=O)n1", "assayed system": "human ether-à-go-go-related gene (hERG) potassium channel (human)", "meas value": -3.47}
{"compound": "COCCN=C1N[C@@H](c2ccccc2)C(C(=O)OC)=C(C)N1Cc1ccccc1", "assayed system": "human ether-à-go-go-related gene (hERG) potassium channel (human)", "meas value": -16.8}
{"compound": "CN(CCc1nc2ccc(Cl)cc2[nH]1)Cc1nc(CC2CC2)no1", "assayed system": "human ether-à-go-go-related gene (hERG) potassium channel (human)", "meas value": -50.8}
{"compound": "CN1CCN(C(=O)CN(C)S(=O)(=O)c2cc(Cl)ccc2Cl)CC1", "assayed system": "human ether-à-go-go-related gene (hERG) potassium channel (human)", "meas value": 4.23}
{"compound": "O=C(CC1C(=O)NCCN1Cc1ccc(-c2ccccc2)cc1)NCCOc1cccnc1 (centres unmarked)", "assayed system": "human ether-à-go-go-related gene (hERG) potassium channel (human)", "meas value": -25.9}
{"compound": "N#Cc1cccc(Nc2c3c(nc4ccccc24)CCCC3)c1", "assayed system": "human ether-à-go-go-related gene (hERG) potassium channel (human)", "meas value": -74.8}
{"compound": "COC(=O)C1=C(C)N(Cc2ccccc2)C(=NCC(C)C)N[C@H]1c1ccccc1", "assayed system": "human ether-à-go-go-related gene (hERG) potassium channel (human)", "meas value": -55.9}
{"compound": "COc1ccc(CC(=O)NCc2nnc(SCc3ccc(C)cc3)n2C)cc1", "assayed system": "human ether-à-go-go-related gene (hERG) potassium channel (human)", "meas value": 5.49}
{"compound": "O=C(Nc1c2c(nc3ccccc13)CCCC2)c1cccc([N+](=O)[O-])c1", "assayed system": "human ether-à-go-go-related gene (hERG) potassium channel (human)", "meas value": -5.85}
{"compound": "COC(=O)C1=C(C)N(Cc2ccccc2)C(=NCCCCO)N[C@H]1c1ccccc1", "assayed system": "human ether-à-go-go-related gene (hERG) potassium channel (human)", "meas value": -53.2}
{"compound": "COc1ccc(CC(=O)NCc2nnc(SCC(=O)c3ccc(OC)cc3)n2C)cc1", "assayed system": "human ether-à-go-go-related gene (hERG) potassium channel (human)", "meas value": -3.61}
{"compound": "COc1ccc(NC2CCCN(C(=O)C3(C)CCCCC3)C2)cc1OC (centres unmarked)", "assayed system": "human ether-à-go-go-related gene (hERG) potassium channel (human)", "meas value": 11.3}
{"compound": "COCCn1c(Cc2ccccc2)nnc1SCc1ccc([N+](=O)[O-])cc1", "assayed system": "human ether-à-go-go-related gene (hERG) potassium channel (human)", "meas value": -55}
{"compound": "COC(=O)C1=C(C)N(CC2CC2)C(=NCc2cc(OC)c(OC)c(OC)c2)N[C@H]1c1ccccc1", "assayed system": "human ether-à-go-go-related gene (hERG) potassium channel (human)", "meas value": -17.5}
{"compound": "N#CC1(NC(=O)COC(=O)C23CC4CC(CC(O)(C4)C2)C3)CCCCC1", "assayed system": "human ether-à-go-go-related gene (hERG) potassium channel (human)", "meas value": 4.38}
{"compound": "COc1cc(NS(=O)(=O)c2ccc(NC(=S)NC(=O)c3ccc(F)cc3)cc2)nc(OC)n1", "assayed system": "human ether-à-go-go-related gene (hERG) potassium channel (human)", "meas value": 3.73}
{"compound": "CC(C)(C)c1nnc(N/N=C/c2ccccc2O)n(N)c1=O", "assayed system": "human ether-à-go-go-related gene (hERG) potassium channel (human)", "meas value": -35}
{"compound": "COC(=O)C1=C(C)N(Cc2ccccc2)C(=O)N[C@H]1c1ccccc1", "assayed system": "human ether-à-go-go-related gene (hERG) potassium channel (human)", "meas value": -13.5}
{"compound": "COCCn1c(Cc2ccccc2)nnc1SCC(=O)N(C)C", "assayed system": "human ether-à-go-go-related gene (hERG) potassium channel (human)", "meas value": 14.3}
{"compound": "OC1(C(F)(F)F)CC(c2ccc3ccccc3c2)=NO1 (centres unmarked)", "assayed system": "human ether-à-go-go-related gene (hERG) potassium channel (human)", "meas value": 4.45}
{"compound": "COC(=O)C1=C(C)N(Cc2ccccc2)C(=O)N[C@H]1c1ccc(Br)cc1", "assayed system": "human ether-à-go-go-related gene (hERG) potassium channel (human)", "meas value": -10.9}
{"compound": "COc1cccc(CNCc2ccc3c(c2)OCO3)c1.O=C(O)C(=O)O", "assayed system": "human ether-à-go-go-related gene (hERG) potassium channel (human)", "meas value": 13.7}
{"compound": "COc1ccc(-n2c(Cc3cccn3C)nnc2SCC(=O)N2CCCc3ccccc32)cc1", "assayed system": "human ether-à-go-go-related gene (hERG) potassium channel (human)", "meas value": -13.9}
{"compound": "O=C(Nc1c2c(nc3ccccc13)CCCC2)c1ccccc1Br", "assayed system": "human ether-à-go-go-related gene (hERG) potassium channel (human)", "meas value": 4.09}
{"compound": "COC(=O)C1=C(C)N(CC2CC2)C(=NCc2cccc(Cl)c2)N[C@H]1c1ccccc1", "assayed system": "human ether-à-go-go-related gene (hERG) potassium channel (human)", "meas value": -72.3}
{"compound": "COC(=O)C1=C(C)N(Cc2ccccc2)C(=NCCCCO)N[C@H]1CCc1ccccc1", "assayed system": "human ether-à-go-go-related gene (hERG) potassium channel (human)", "meas value": -43.3}
{"compound": "Cc1nnc(N2CCC(C(=O)NC3CCC(C)CC3)CC2)c2nn(-c3ccc(Cl)cc3)c(C)c12 (centres unmarked)", "assayed system": "human ether-à-go-go-related gene (hERG) potassium channel (human)", "meas value": 18.8}
{"compound": "Nc1nnc(SCC(=O)Nc2cccc(S(=O)(=O)N3CCOCC3)c2)s1", "assayed system": "human ether-à-go-go-related gene (hERG) potassium channel (human)", "meas value": 24.1}
{"compound": "Cc1nc(C(=O)NC2CCOCC2)sc1C1(C)CC(c2ccccc2)=NO1 (centres unmarked)", "assayed system": "human ether-à-go-go-related gene (hERG) potassium channel (human)", "meas value": -19.8}
{"compound": "COCCNc1oc(-c2ccc(C)cc2)nc1C#N", "assayed system": "human ether-à-go-go-related gene (hERG) potassium channel (human)", "meas value": 8.26}
